ASSAY_EXPLANATION: Rat pharmacokinetic test
Format: in vivo, SD rats
SETTINGS: both sexes, rat, plasma, po; SD rats, single gavage, 10 mg/kg

- MOLECULE: "O=C(O)C[S+]([O-])c1cc(NS(=O)(=O)c2ccc(Br)cc2)c2ccccc2c1O (stereo not shown)"
  half-life [h]: 3.86

* * *

ASSAY_EXPLANATION: Rat pharmacokinetic test
Format: in vivo, SD rats
SETTINGS: both sexes, SD, rat, plasma, iv, 10 mg/kg, SD rats, single intravenous injection, 10 mg/kg; read-out: AUC0-24 h
PROPERTY_LABEL: AUC(0-t) (µg·h/mL)

- MOLECULE: "O=C(O)C[S+]([O-])c1cc(NS(=O)(=O)c2ccc(Br)cc2)c2ccccc2c1O (stereo not shown) [Embodiment 4]"
  DISPLAY_UNIT: "µg·h/mL"
  RESULT_NUMBER: 112

The reported measurements were obtained from patent US20250333377A1.
